# System: rat primary hepatocytes
# PROCEDURE DETAILS: Metabolic disposition of [^14C]-Compound 1 and [^14C]-2′-C-methyl guanosine in rat primary hepatocytes (incubation medium, cellular extracts, nucleotide levels)
# Format: in vitro ADME, Sprague Dawley rat
# TEST CONDITIONS: rat hepatocytes Rs458; 10 μM [^14C]-2′-C-methyl guanosine; 1 h
MEASURED ATTRIBUTE: Major metabolites observed in cellular extracts (% of total radioactivity)

[Q] State the recorded Major metabolites observed in cellular extracts (% of total radioactivity) for this entry: C[C@@]1(O)[C@H](O)[C@@H](COP(=O)(O)OP(=O)(O)O)O[C@H]1n1cnc2c(=O)[nH]c(N)nc21
[A] 1.08 % of total radioactivity

[Q] Please report the recorded Major metabolites observed in cellular extracts (% of total radioactivity) for C[C@@]1(O)[C@H](O)[C@@H](COP(=O)(O)OP(=O)(O)OP(=O)(O)O)O[C@H]1n1cnc2c(=O)[nH]c(N)nc21 .
[A] 4.42 % of total radioactivity

Next, consider the following compound.
[Q] Which Major metabolites observed in cellular extracts (% of total radioactivity) value belongs to C[C@@]1(O)[C@H](O)[C@@H](CO)O[C@H]1n1cnc2c(=O)[nH]c(N)nc21 [2′-C-methyl guanosine, 9-(2-C-methyl-β-D-ribofuranosyl)guanine, reference compound] ?
[A] 94.5 % of total radioactivity

###

# Test system: rat primary hepatocytes
# PROCEDURE DETAILS: Metabolic disposition of [^14C]-Compound 1 and [^14C]-2′-C-methyl guanosine in rat primary hepatocytes (incubation medium, cellular extracts, nucleotide levels)
# Assay type: in vitro ADME, Sprague Dawley rat
# TEST CONDITIONS: rat hepatocytes Rs458; 1 μM [^14C]-2′-C-methyl guanosine; 8 h
Quick reference for Major metabolites observed in cellular extracts (% of total radioactivity) among some molecules

Worked cases, Major metabolites observed in cellular extracts (% of total radioactivity) given:
[Q] Could you tell me which Major metabolites observed in cellular extracts (% of total radioactivity) is on file for C[C@@]1(O)[C@H](O)[C@@H](COP(=O)(O)OP(=O)(O)O)O[C@H]1n1cnc2c(=O)[nH]c(N)nc21 [Compound 6] ?
[A] 5.14 % of total radioactivity

[Q] Fill in: Major metabolites observed in cellular extracts (% of total radioactivity) of C[C@@]1(O)[C@H](O)[C@@H](COP(=O)(O)OP(=O)(O)OP(=O)(O)O)O[C@H]1n1cnc2c(=O)[nH]c(N)nc21 [Compound 7] is ___
[A] 26.1 % of total radioactivity

***
[Q] Requested read-out: Major metabolites observed in cellular extracts (% of total radioactivity). Entry: C[C@@]1(O)[C@H](O)[C@@H](CO)O[C@H]1n1cnc2c(=O)[nH]c(N)nc21 [2′-C-methyl guanosine, 9-(2-C-methyl-β-D-ribofuranosyl)guanine, reference compound]
[A] 68.7 % of total radioactivity

###

# System: rat primary hepatocytes
# PROCEDURE DETAILS: Metabolic disposition of [^14C]-Compound 1 and [^14C]-2′-C-methyl guanosine in rat primary hepatocytes (incubation medium, cellular extracts, nucleotide levels)
# Format: in vitro ADME, Sprague Dawley rat
# TEST CONDITIONS: rat hepatocytes (Rs458), 1 μM [^14C]-Compound 1, 8 h
MEASURED ATTRIBUTE: metabolites observed in medium (% of total radioactivity) (%)
Give a bare numeral; the unit % is implied.

See these solved cases before continuing.
[Q] Value lookup for metabolites observed in medium (% of total radioactivity); key = C[C@@]1(O)[C@H](O)[C@@H](COP(=O)(O)NCc2ccccc2)O[C@H]1n1cnc2c(=O)[nH]c(N)nc21
[A] 9.52

[Q] Using the record for C[C@@]1(O)[C@H](O)[C@@H](CO)O[C@H]1n1cnc2c(=O)[nH]c(N)nc21 [2′-C-methyl guanosine, 9-(2-C-methyl-β-D-ribofuranosyl)guanine, reference compound] , report its metabolites observed in medium (% of total radioactivity).
[A] 29.4

Now examine the next entry.
[Q] Please report the recorded metabolites observed in medium (% of total radioactivity) for C[C@@]1(O)[C@H](O)[C@@H](COP(=O)(O)O)O[C@H]1n1cnc2c(=O)[nH]c(N)nc21 .
[A] 6.41
